Cited source for all entries: the supplement of paper PMC9170038

# Tested on: MS2 coat protein
# TEST DETAILS: apparent KD of MS2 coat protein; higher = weaker reporter binding
# COND: Eterna round: R107; input ligand: arginine 13.2 mM
REPORTED METRIC: apparent KD of MS2 coat protein

# annotated cases, reported apparent KD of MS2 coat protein shown
SEQUENCE	OBS VALUE
AGGACAUGAGGAUCACCCAUGUACUCUGAAGGAGCGUCGAGAACGACAGGUAGGUCGCAGGCUAAGGAAGGUGAUGCUCAAGAAG [Exclusion Arginine A GF7]	20.1 nM
UAAACUACACAUGAGGAUCACCCAUGUGGCCGAGGACCGGUACGGCCGCCACUCGUGUGUUAAUAAAAGAACUGCAAGAUUCUUU [Issoraor]	78.3 nM

Q: Query the reported apparent KD of MS2 coat protein for MS2 coat protein; item: CAUUGAGCAGCUGAUACCAGUGCCUGAACUUACAUGAGGAUCACCCAUGUAUGCCCAAAACACCCUUGGCAGCAGAGGAAGAUCG [theeternabot_sameState_MS2_Theo_B_38]
Result: 15.2 nM

Q: And the next one, UUGGGUAUGCGAAGGAGCGGGAAAUAUAUAUAUAUAAUCCUAACAUGAGGAUCACCCAUGUCCCAGGUAGGUCGCGCAUGUUUGG [12.K] ?
Result: 128 nM

Q: And the next one, UUUGGCGGCGAUCUGGGUUUCCCAGAUCGGCGAGGACCGGUACGGCCGCCACUCGUGUUUCUUUGACAUGAGGAUCACCCAUGUA [whbob_SS_trypto A_f4] ?
Result: 51.5 nM

Q: And the next one, GCUUGGGUGGCCCAGCCCUGGCAGGGCGAUACCAGCACGGUAACGUGCCCUUGGCAGCGCACAUGAGGAUCACCCAUGUGGUGCG [#1 Exclusion - Theophylline A Attempt #27 (HarryS)] ?
Result: 52.8 nM

Q: And the next one, GUAUCGACAUGAGGAUCACCCAUGUCCGAAGGAGCGUUGGGAACAACAGGUAGGUCGCGGACAUAGAGCAUCCGGAAACGGAUGC [EAA NP+V+V2 #1] ?
Result: 10.1 nM

Q: And the next one, UGUAUGUGAUCUGAUACCAGAGUUGAUAAUCUGAGGAUCACCCUGGUAAGGCGAAAGCCACUCCCUUGGCAGCAGAUCGCAUACU ?
Result: 106 nM

Q: And the next one, UAUAAACAGCCUGGUUACUCGUCGCGCUUGCGAGGACCGGUACGGCCGCCACUCGACCCAUCACAUGAGGAUCACCCAUGUCCCA [theeternabot_exclusion_MS2_Trp_A_25] ?
Result: 29.4 nM

Q: And the next one, AAUCGCCUGGGUCGCAUCCUUGCUCCGGAUACCAGUCAAUAGUUGGACCCUUGGCAGCCGUAGACAUGAGGAUCACCCAUGUAUA [theeternabot_exclusion_MS2_Theo_A_42] ?
Result: 30.2 nM

Q: And the next one, ACGAUACGACAUGAGGAUCACCCAUGUGAUACCAGCGUGGAAACACGCCCUUGGCAGCACAAAUACUCCAGAAACGUAUCGAAAA [MAT - Exclusion Theophlline A - Mod of Eli - D7] ?
Result: 93.3 nM
